# assay.summary: in vitro
# condition.set: rat, gh3-tre-luc cells, AC50 (uM) modified / 1000, Tox21_110001=Tox21_201112; viability, 1 nM T3 present, 24 h
property: CC50 at 24 h

- molecule: "CC(Cl)(Cl)C(=O)O [Dalapon-sodium]"
  property: "CC50 at 24 h"
  result: "> 90 µM"

====

# assay.summary: in vitro
# condition.set: rat, gh3-tre-luc cells, AC50 (uM) modified / 1000, Tox21_110001=Tox21_112509; viability, 1 nM T3 present, 24 h
property: CC50 at 24 h

- compound: "NC1=NC(=O)C(c2ccccc2)O1 (stereo not shown)"
  result: "> 50 µM"
